Below, each of the molecules is paired with its reported melting point value.

Known melting point results, listed for orientation:
- MOLECULE: "CCN(c1nc(C)cc(C(=O)O)n1)c1ccc(C(C)C)cc1Br"
  melting point: "102 to 104 °C"
- MOLECULE: "O=C1O[C@@H](CO)CN1c1ccc2ncccc2c1"
  melting point: "165 °C"
- MOLECULE: "CCCCc1nc(C(F)(F)F)c(C(=O)OCC)n1Cc1cccc2c1ccn2-c1ccccc1-c1nn[nH]n1"
  melting point: "93 to 95 °C"
- MOLECULE: "Nc1nc2c(s1)CCN(C(=O)c1ccc(NC(=O)c3ccccc3-c3ccccc3)cc1)c1ccccc1-2"
  melting point: "> 250 °C"
- MOLECULE: "CCCCSc1ccc(C(O)CNC2CCCCC2)cc1C (stereo not given)"
  melting point: "136 °C"

// melting point value for CC(=O)Oc1ccc(C=CC(=O)C=Cc2ccc(OC(C)=O)c(OC(C)=O)c2)cc1OC(C)=O : 70 to 72 °C

// melting point value for COc1cc(COc2nn(-c3ccccc3)cc2C=C(C#N)C#N)ccc1OCc1nc(-c2ccco2)oc1C : 190 to 191 °C

// melting point value for O=S(Cc1c(F)cccc1Cl)c1nc2cnccc2[nH]1 (stereo not given) : 180 to 183 °C

// melting point value for N#Cc1c(N)[nH]c2ccc(Sc3ccc(O)cc3)cc12 : 241 to 242 °C

// melting point value for COC(=O)CCc1ccc(OC2Cc3ccccc3C2)cc1 : 73 to 74 °C

###

MEASURE: melting point

Known melting point results, listed for orientation:
- COMPOUND: "O=C(O)C(Sc1nc2cc(Cl)ccc2s1)c1ccccc1 (stereo not drawn)"
  melting point: "190 to 192 °C"
- COMPOUND: "CCNc1cccnc1N1CCN(C(=O)c2ccc(C(=O)OC)cn2)CC1"
  melting point: "80 to 81 °C"

Then this compound:
// melting point value for CC(C)(C)OC(=O)NO[C@H]1CC=C[C@H]1NC(=O)OCC(Cl)(Cl)Cl : 83 to 84 °C

###

Below, each of the molecules is paired with its reported melting point value.

Known melting point results, listed for orientation:
- MOLECULE: "O=C(CCCC(Cc1c[nH]c2ccccc12)(NC(=O)OC1C2CC3CC(C2)CC1C3)C(=O)NCCc1ccccc1)OCc1ccccc1 (stereo unspecified)"
  melting point: "115 to 136 °C"
- MOLECULE: "O=C1O[C@@H]2C[C@@]1(O)C=C(OCc1ccc3sccc3c1)[C@H]2O"
  melting point: "177 to 179 °C"
- MOLECULE: "COc1cc(Br)c2c(c1)CCCN2"
  melting point: "125 to 126 °C"

// melting point value for C=CCCCCS(=O)(=O)C[C@@H](C)C(=O)O : 51 to 54 °C

// melting point value for CCCCCCCCCCCC(=O)NC(=O)OCc1nc(C(C)C)c(Sc2cc(Cl)cc(Cl)c2)n1CC : 100 to 102 °C

// melting point value for CC(=NOCCOc1ccc(C(=O)O)c(OC(=O)c2ccc(-c3ccccc3)cc2)c1)c1ccccc1 : 158 to 159 °C

###

MEASURE: melting point (°C)

- COMPOUND: "Cc1c[nH]c2ccc(O)cc12"
  MEASURE: "melting point"
  RECORDED_MEASUREMENT: 116
- COMPOUND: "Cn1ccc(NC(=O)Nc2cccc3c2C2CC4(CCN2C3=O)SCCS4)n1 (centres undefined)"
  MEASURE: "melting point"
  RECORDED_MEASUREMENT: 135

###

MEASURE: melting point

- COMPOUND: "Nc1cc(C(=O)Nc2ccncc2)ccc1OCC1CCCCC1"
  MEASURE: "melting point"
  RECORDED_MEASUREMENT: "193 to 194 °C"
- COMPOUND: "COc1ccnn2c(-c3ccnc(N)c3)c(-c3ccc(F)c(C)c3)nc12"
  MEASURE: "melting point"
  RECORDED_MEASUREMENT: "219 to 220 °C"

// melting point value for CCc1ccc(OCC(O)CN2CCC3(CC2)CSC2=C(O3)c3ccccc3C(=O)C2=O)cc1 (centres undefined) : 137 to 138 °C

// melting point value for COc1ccc(S(C)(=O)=O)cc1C(=O)O : 189 to 191 °C

// melting point value for Cc1cc(NC2=NN(c3ccccc3)CC2)cc(C)c1O : 154 to 158 °C

// melting point value for COc1ccc(-c2c(-c3ccccc3)c(Sc3ccc4c(c3)CC[C@H]3N(C)C(=O)CC[C@]43C)nc3ccccc23)cc1 : 239 to 242 °C

// melting point value for O=C1CCCc2cc(-c3ccccc3)ccc21 : 99 to 100 °C

###

Below, each of the compounds is paired with its reported melting point value.

- COMPOUND: "CCCCNC(=O)C(c1ccccc1)c1ccccc1"
  melting point: "96 °C"
- COMPOUND: "O=C(NCCc1ccccn1)c1cnc2cc3c(cc2c1Cl)OCO3"
  melting point: "145 to 146 °C"

Then this compound:
// melting point value for O=C(O)CCCOc1ccc(C23CC4CC(CC(C4)C2)C3)cc1Cl : 164 to 166 °C

###

Below, each of the compounds is paired with its reported melting point value.

Known melting point results, listed for orientation:
- COMPOUND: "Cc1ccc(C(N)=O)c(C)c1"
  melting point: "184 to 186 °C"
- COMPOUND: "CN1CN(C)C(=N[N+](=O)[O-])N(Cc2ccc(Cl)nc2)C1"
  melting point: "116 to 117 °C"
- COMPOUND: "CC(C)N1C(=O)NC(c2cnc3ccccc3c2)c2cc3c(cc21)OCO3 (stereo not drawn)"
  melting point: "202 to 205 °C"
- COMPOUND: "Cc1ccc(Sc2nc(C(N)=O)nc3c(C)csc23)cc1"
  melting point: "243 to 246 °C"
- COMPOUND: "CC(=O)OCC1OC(n2ccc3c(Br)cccc32)C(OC(C)=O)C(OC(C)=O)C1OC(C)=O (stereo not drawn)"
  melting point: "166 to 167 °C"
- COMPOUND: "O=S(=O)(NCC1CCN(C[C@H]2COc3ccc4[nH]ccc4c3O2)CC1)c1ccccn1"
  melting point: "86 to 88 °C"
- COMPOUND: "Cc1oc(-c2ccccc2)nc1COc1ccc(C=NO)cc1"
  melting point: "192 to 193 °C"
- COMPOUND: "CN(C)Cc1[nH]c2ccccc2c1Cn1ccnc1"
  melting point: "153 to 156 °C"
- COMPOUND: "COc1cc2c(cc1OC)C(C(CO)CO)N(C(=O)c1ccccc1)CC2 (stereo not drawn)"
  melting point: "161 to 163 °C"
- COMPOUND: "Oc1ccc2c(c1)COc1c-2cc2ccc(O)cc2c1-c1cccc(C(F)(F)F)c1"
  melting point: "228 to 231 °C"

// melting point value for Cc1ccc(Cl)c(N)c1C#N : 77 to 80 °C

// melting point value for Nc1ncnc2c1ncn2[C@H]1CO[C@@H](CO)C1 : 183 to 185 °C

// melting point value for N#CCn1nc(-c2c(-c3ccccc3)nn3ccccc23)ccc1=O : 218 to 219 °C

// melting point value for O=C1c2cc3nnn(CCCc4cccc(F)c4)c(=O)c3cc2OC2CCCN12 (stereo not drawn) : 145 to 148 °C

// melting point value for O=c1[nH]nc(-c2c(Cl)ccc3cc(Cl)cnc23)o1 : 87 °C

// melting point value for CC(C)C(=O)N[C@H]1C[C@@H](c2cc(NC(=O)Cc3cccc4ccccc34)n[nH]2)C1 : 131 °C

// melting point value for COc1cc2c3c(c1)c(=O)c(C(=O)O)cn3CCC2 : 253 to 257 °C

// melting point value for CS(=O)(=O)Oc1ccc2cc(CO)ccc2c1 : 96 to 98 °C

###

Below, each of the compounds is paired with its reported melting point value.

Known melting point results, listed for orientation:
- QUERY_SMILES: "C=C(C)CN(CC)c1nc(N2CCN(C(=O)NC(c3ccccc3)c3ccccc3)CC2)nc(N(CC)CC(=C)C)n1"
  RECORDED_MEASUREMENT: "178 to 180 °C"
- QUERY_SMILES: "C#CCON=Cc1cc(Cl)ccc1OC(=O)NC"
  RECORDED_MEASUREMENT: "97 to 100 °C"

// melting point value for O=C(CCCCC(=O)c1ccc(F)cc1)c1ccc(F)cc1 : 165 to 167 °C

###

MEASURE: melting point

Known melting point results, listed for orientation:
- MOLECULE: "Cc1oc(-c2cccc([N+](=O)[O-])c2)nc1CCl"
  melting point: "111 to 113 °C"
- MOLECULE: "CNC(=O)c1c(N)cccc1OC"
  melting point: "186 to 189 °C"
- MOLECULE: "CC(C)C[C@H](NS(=O)(=O)c1ccc2c(c1)Sc1ccccc1O2)C(=O)O"
  melting point: "120 to 130 °C"

// melting point value for COC(=O)CC(=O)c1cc2cc(OC)c(OC)cc2s1 : 129 to 130 °C

// melting point value for COC(=S)c1[nH]c2ccc(Cl)cc2c1-c1ccccc1 : 193 to 196 °C

// melting point value for Cc1ccc(-c2cc(NCCNc3cc(-c4cccs4)[nH]n3)n[nH]2)cc1 : 148 °C

// melting point value for Cc1oc(-c2ccccc2)nc1CCOc1ccc(CC(Br)C#N)cn1 (centres undefined) : 93 to 94 °C

// melting point value for CC(C)Oc1ccc(-n2c(C(=O)NCC(=O)O)c(Cl)c3cc(Oc4ccc(C(F)(F)F)cc4)ccc32)cc1 : 94 to 96 °C
